- System: S. pneumoniae ATCC49619
- protocolText: MIC, microdilution broth method (NCCLS)
- Type: cell-based
- runParameters: Streptococcus pneumoniae, Table 2, 3,6-Dicarbamoyl Macrolide Derivatives, read-out: MIC Values, D: S. pneumoniae ATCC49619
- Protocol: Minimal inhibitory concentration (MIC) has been an indicator of in vitro antibacterial activity widely used in the art. The in vitro antimicrobial activity of the compounds was determined by the microdilution broth method following the test method from the National Committee for Clinical Laboratory Standards (NCCLS). […] Following inoculation of the microdilution trays, the trays are incubated at 35 °C for 16-20 hours and then read. […]
MIC values by entry

{"molecule": "CC[C@H]1OC(=O)[C@H](C)[C@@H](OC(=O)N(CC)CC)[C@H](C)[C@@H](O[C@@H]2O[C@H](C)C[C@H](N(C)C)[C@H]2O)[C@](C)(OC(=O)NC/C=C/c2cnc3ccccc3c2)C[C@@H](C)C(=O)[C@H](C)[C@H]2NC(=O)O[C@@]21C [Compound 59]", "MIC / µg/mL": 0.06}
{"molecule": "CC[C@H]1OC(=O)[C@H](C)[C@@H](OC(=O)N(CC)Cc2cccnc2)[C@H](C)[C@@H](O[C@@H]2O[C@H](C)C[C@H](N(C)C)[C@H]2O)[C@](C)(OC(=O)NC/C=C/c2ccc(-c3ncccn3)cc2)C[C@@H](C)C(=O)[C@H](C)[C@H]2NC(=O)O[C@@]21C [Compound 61]", "MIC / µg/mL": 0.06}
{"molecule": "CC[C@H]1OC(=O)[C@H](C)[C@@H](OC(=O)N(CC)CC)[C@H](C)[C@@H](O[C@@H]2O[C@H](C)C[C@H](N(C)C)[C@H]2O)[C@](C)(OC(=O)NC/C=C/c2ccc(-c3ccn(C)n3)cc2)C[C@@H](C)C(=O)[C@H](C)[C@H]2NC(=O)O[C@@]21C [Compound 73]", "MIC / µg/mL": 0.12}
{"molecule": "CC[C@H]1OC(=O)[C@H](C)[C@@H](OC(=O)NC2CCCCC2)[C@H](C)[C@@H](O[C@@H]2O[C@H](C)C[C@H](N(C)C)[C@H]2O)[C@](C)(OC(=O)NC/C=C/c2ccc(-c3ncccn3)cc2)C[C@@H](C)C(=O)[C@H](C)[C@H]2NC(=O)O[C@@]21C [Compound 51]", "MIC / µg/mL": 0.12}
{"molecule": "CC[C@H]1OC(=O)[C@H](C)[C@@H](OC(=O)Nc2ccc(F)cc2)[C@H](C)[C@@H](O[C@@H]2O[C@H](C)C[C@H](N(C)C)[C@H]2O)[C@](C)(OC(=O)NC/C=C/c2ccc(-c3ncccn3)cc2)C[C@@H](C)C(=O)[C@H](C)[C@H]2NC(=O)O[C@@]21C [Compound 52]", "MIC / µg/mL": 0.12}
{"molecule": "CC[C@H]1OC(=O)[C@H](C)[C@@H](OC(=O)N(C)C)[C@H](C)[C@@H](O[C@@H]2O[C@H](C)C[C@H](N(C)C)[C@H]2O)[C@](C)(OC(=O)NC/C=C/c2ccc(-c3ncccn3)cc2)C[C@@H](C)C(=O)[C@H](C)[C@H]2NC(=O)O[C@@]21C [Compound 55]", "MIC / µg/mL": 0.03}
{"molecule": "CC[C@H]1OC(=O)[C@H](C)[C@@H](OC(=O)Nc2ccc(OC)nc2)[C@H](C)[C@@H](O[C@@H]2O[C@H](C)C[C@H](N(C)C)[C@H]2O)[C@](C)(OC(=O)NC/C=C/c2ccc(-c3ncccn3)cc2)C[C@@H](C)C(=O)[C@H](C)[C@H]2NC(=O)O[C@@]21C [Compound 50]", "MIC / µg/mL": 0.12}
{"molecule": "CC[C@H]1OC(=O)[C@H](C)[C@@H](OC(=O)N(CC)CC)[C@H](C)[C@@H](O[C@@H]2O[C@H](C)C[C@H](N(C)C)[C@H]2O)[C@](C)(OC(=O)NC/C=C/c2ccc(-c3cccnn3)cc2)C[C@@H](C)C(=O)[C@H](C)[C@H]2NC(=O)O[C@@]21C [Compound 71]", "MIC / µg/mL": 0.06}
{"molecule": "CC[C@H]1OC(=O)[C@H](C)[C@@H](OC(=O)N2CCCCC2)[C@H](C)[C@@H](O[C@@H]2O[C@H](C)C[C@H](N(C)C)[C@H]2O)[C@](C)(OC(=O)NC/C=C/c2ccc(-c3ncccn3)cc2)C[C@@H](C)C(=O)[C@H](C)[C@H]2NC(=O)O[C@@]21C [Compound 64]", "MIC / µg/mL": 0.06}
{"molecule": "CC[C@H]1OC(=O)[C@H](C)[C@@H](OC(=O)N(CC)CCO)[C@H](C)[C@@H](O[C@@H]2O[C@H](C)C[C@H](N(C)C)[C@H]2O)[C@](C)(OC(=O)NC/C=C/c2ccc(-c3ncccn3)cc2)C[C@@H](C)C(=O)[C@H](C)[C@H]2NC(=O)O[C@@]21C [Compound 66]", "MIC / µg/mL": 0.25}
